# experiment notes: physchem
# experimental setup: pH 6.4, Solubility Conc.
Positions of bridges follow the written chain, without caps; N, C: chain ends. Non-standard residues stand in square brackets, D forms with d. Residues, ends and D or L forms follow the SMILES beside them. Groups on a side chain read outwards from the residue. *: point of attachment. Lys(CH2CO2H)2 = N[C@@H](CCCCN(CC(=O)O)CC(=O)O)C(=O)O; C16 diacid = O=C(O)CCCCCCCCCCCCCCC(=O)*; hCys = N[C@@H](CCS)C(=O)O; Orn = NCCC[C@H](N)C(=O)O; AEEA = NCCOCCOCC(=O)O

{"columns": ["molecule", "solubility, µM"],
 "data": [
  ["CC(=O)N[C@H]1CCCNC(=O)C[C@@H](C(=O)N2CCC[C@H]2C(=O)N2CCC[C@H]2C(=O)N[C@@H](Cc2c[nH]cn2)C(=O)N[C@@H](CCC(=O)O)C(=O)N[C@@H](CCCCN(CC(=O)O)CC(=O)O)C(=O)N[C@@H](CCCCNC(=O)COCCOCCNC(=O)CCCCCCCCCCCCCCC(=O)O)C(N)=O)NC(=O)[C@H](Cc2c[nH]c3ccccc23)NC(=O)[C@H](CCCNC(=N)N)NC(=O)[C@@H](Cc2ccccc2)NC(=O)[C@H](Cc2c[nH]cn2)NC1=O [Example 51] (Ac-[Orn]H[dF]RWDPPHE[Lys(CH2CO2H)2]K([AEEA-C16 diacid])-NH2; lactam 1-6)", 450],
  ["CC(=O)N[C@H]1CCC(=O)NCCC[C@@H](C(=O)N2CCC[C@H]2C(=O)N2CCC[C@H]2C(=O)N[C@@H](CCCNC(=N)N)C(=O)N[C@@H](CC(=O)O)C(=O)N[C@@H](CCCCN(CC(=O)O)CC(=O)O)C(=O)N[C@@H](CCCCNC(=O)COCCOCCNC(=O)CCCCCCCCCCCCCCC(=O)O)C(N)=O)NC(=O)[C@H](Cc2c[nH]c3ccccc23)NC(=O)[C@H](CCCNC(=N)N)NC(=O)[C@@H](Cc2ccccc2)NC(=O)[C@H](Cc2cnc[nH]2)NC1=O [Example 18] (Ac-EH[dF]RW[Orn]PPRD[Lys(CH2CO2H)2]K([AEEA-C16 diacid])-NH2; lactam 1-6)", 326],
  ["CC(=O)N[C@H]1CCSSC[C@@H](C(=O)N[C@@H](CO)C(=O)N2CCC[C@H]2C(=O)N[C@@H](CCCCN)C(=O)N[C@@H](CCC(=O)O)C(=O)N[C@@H](CCCCN(CC(=O)O)CC(=O)O)C(=O)N[C@@H](CCCCNC(=O)COCCOCCNC(=O)CCCCCCCCCCCCCCC(=O)O)C(N)=O)NC(=O)[C@H](Cc2c[nH]c3ccccc23)NC(=O)[C@H](CCCNC(=N)N)NC(=O)[C@@H](Cc2ccccc2)NC(=O)[C@H](Cc2c[nH]cn2)NC1=O [Example 60] (Ac-[hCys]H[dF]RWCSPKE[Lys(CH2CO2H)2]K([AEEA-C16 diacid])-NH2; disulfide 1-6)", 415]
]}

Where these numbers come from: patent US20130012432A1
